B1: glmS ribozyme (parent)
chain: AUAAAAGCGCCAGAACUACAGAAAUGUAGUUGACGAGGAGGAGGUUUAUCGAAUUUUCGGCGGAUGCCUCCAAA

Variants of: B1
Experiment: self-cleavage kobs at 40 uM GlcN6P; higher = faster cleavage; RNA array
Details: with glucosamine-6-phosphate
This sample holds only a part of the variants without activity.
Recorded self-cleavage kobs at 40 uM GlcN6P by entry

variantAnnotation	measuredQuantity	measValue
A12G G62A	self-cleavage kobs at 40 uM GlcN6P	< 1e-05 s⁻¹
G66A C70A	self-cleavage kobs at 40 uM GlcN6P	8.27e-05 s⁻¹
A39C G62A	self-cleavage kobs at 40 uM GlcN6P	< 1e-05 s⁻¹
U65G G66A	self-cleavage kobs at 40 uM GlcN6P	4.28e-05 s⁻¹
A12U A15C	self-cleavage kobs at 40 uM GlcN6P	0.000955 s⁻¹

# input Find the recorded self-cleavage kobs at 40 uM GlcN6P belonging to A6G C71G and report it.
# output < 1e-05 s⁻¹

# input Find the recorded self-cleavage kobs at 40 uM GlcN6P belonging to G35A U57G and report it.
# output < 1e-05 s⁻¹

# input Find the recorded self-cleavage kobs at 40 uM GlcN6P belonging to A53U U56A and report it.
# output 0.000172 s⁻¹

# input Find the recorded self-cleavage kobs at 40 uM GlcN6P belonging to C34A G60U C68A and report it.
# output < 1e-05 s⁻¹

# input Find the recorded self-cleavage kobs at 40 uM GlcN6P belonging to A33G G40U U49C and report it.
# output < 1e-05 s⁻¹

# input Find the recorded self-cleavage kobs at 40 uM GlcN6P belonging to U30A U54A G59U G62U C67U C70U and report it.
# output < 1e-05 s⁻¹
